- Test system: 633275-114-R-J1-PDC complex spheroids, viability;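 also: spheroids exposed to the agents for seven days; percent of DMSO vehicle control viability which is 100%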
- measurement.description: Anticancer human tumor 633275-114-R-J1-PDC patient-derived endometrial adenocarcinoma cell line growth inhibition [GQUAD]
- condition.summary: second compound 0.1 µM; first compound 0.00999 µM; hits give low values
Lab note - cut at 80% for viability, T/C: 1 if strictly below, 0 if not.

Check out these entries, answers already filled in.
Quick check: does CCc1c2c(nc3ccc(O)cc13)-c1cc3c(c(=O)n1C2)COC(=O)[C@]3(O)CC + Cc1[nH]c2ccc(F)cc2c1-c1nc2c3cccnc3c3ncccc3c2[nH]1 have viability, T/C under 80%?
1

Quick check: does Cn1ncnc1[C@H]1c2n[nH]c(=O)c3cc(F)cc(c23)N[C@@H]1c1ccc(F)cc1 + CN(C)c1ccc(Nc2c3ccc(NC(=O)CCN4CCCC4)cc3nc3cc(NC(=O)CCN4CCCC4)ccc23)cc1 have viability, T/C under 80%?
0

---
Quick check: does CC[C@@]1(O)C(=O)OCc2c1cc1n(c2=O)Cc2cc3c(CN(C)C)c(O)ccc3nc2-1 + Cc1cnc(CNC(=O)c2c(=O)c3ccc(N4CCCN(C)CC4)nc3n3c2sc2ccccc23)cn1 have viability, T/C under 80%?
1

Quick check: does CCc1c2c(nc3ccc(O)cc13)-c1cc3c(c(=O)n1C2)COC(=O)[C@]3(O)CC + CN(C)c1ccc(Nc2c3ccc(NC(=O)CCN4CCCC4)cc3nc3cc(NC(=O)CCN4CCCC4)ccc23)cc1 have viability, T/C under 80%?
1

Quick check: does CC[C@@]1(O)C(=O)OCc2c1cc1n(c2=O)Cc2cc3c(CN(C)C)c(O)ccc3nc2-1 + Cc1[nH]c2ccc(F)cc2c1-c1nc2c3cccnc3c3ncccc3c2[nH]1 have viability, T/C under 80%?
0

Quick check: does CCc1c2c(nc3ccc(O)cc13)-c1cc3c(c(=O)n1C2)COC(=O)[C@]3(O)CC + Cc1cnc(CNC(=O)c2c(=O)c3ccc(N4CCCN(C)CC4)nc3n3c2sc2ccccc23)cn1 have viability, T/C under 80%?
1
